Test system: OXPHOS gene expression
Format: cell-based, mouse
Settings: Conc 20 μM; normalized score vs mock-treated (DMSO) wells
Please respond with reported GE-HTS (composite Z-score) for every item in the list.
One number for each entry.

Consider the reported GE-HTS (composite Z-score) for these molecules:
> print(dat)
                                   molecule           recorded.endpoint   value
1       COc1cc(OC)c2c(=O)cc(-c3ccccc3)oc2c1  GE-HTS (composite Z-score)   0.480
2  CO[C@H]1C[C@H](O[C@H]2CC[C@]3(C=O)[C@H]4CC[C@]5(C)[C@@H](C6=CC(=O)OC6)CC[C@]5(O)[C@@H]4CC[C@]3(O)C2)O[C@H](C)[C@H]1O  GE-HTS (composite Z-score)  −0.473
3       CCOc1cc(CC(=O)c2ccc(O)c(O)c2O)ccc1O  GE-HTS (composite Z-score)   1.215
4  C/C1=C\CC(C)(C)/C=C/CC2(C)OC2CC1 (stereo not drawn)  GE-HTS (composite Z-score)  −1.172
5  CC1=CC(=O)C2=C(C)C[C@H](O)[C@@H]3[C@H](OC(=O)[C@H]3C)[C@H]12  GE-HTS (composite Z-score)   0.165

Prompt: Lab note: need GE-HTS (composite Z-score) for "C=C1C2CC[C@@]3(C)[C@H](c4ccoc4)OC(=O)C[C@]13O[C@H]1C[C@H](OC(C)=O)C(C)(C)[C@H](CC(=O)OC)[C@@]21C" on OXPHOS gene expression, anyone have it?
Completion: 0.772
